B1: Mineralocorticoid receptor, residues 600 to 675; numbered along this chain, P08235 (parent)
chain: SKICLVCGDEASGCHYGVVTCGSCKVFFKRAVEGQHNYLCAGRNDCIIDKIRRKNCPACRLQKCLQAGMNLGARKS

# Variants of: B1
# assay-text: abundance fitness (aPCA) (normalised: wild type 0, dead -1); higher = more abundant; growth selection in yeast, the domain comes from the species named
# test-context: Homo sapiens

- mutation-annotation: "I3T"
  abundance fitness: -0.164
- mutation-annotation: "V32D"
  abundance fitness: -0.035
- mutation-annotation: "N37K"
  abundance fitness: 0.031
- mutation-annotation: "G72Y"
  abundance fitness: -0.074
- mutation-annotation: "Q35K"
  abundance fitness: 0.011
- mutation-annotation: "K75Q"
  abundance fitness: 0.05
- mutation-annotation: "A11F"
  abundance fitness: -0.194
- mutation-annotation: "D49Y"
  abundance fitness: -0.211
- mutation-annotation: "V26I"
  abundance fitness: 0.031
- mutation-annotation: "H36Q"
  abundance fitness: -0.004
- mutation-annotation: "R43F"
  abundance fitness: -0.045
- mutation-annotation: "G13Q"
  abundance fitness: 0.032
- mutation-annotation: "Q35H"
  abundance fitness: -0.022
- mutation-annotation: "C7H"
  abundance fitness: -0.802
- mutation-annotation: "R43N"
  abundance fitness: -0.015
- mutation-annotation: "N37T"
  abundance fitness: -0.029
- mutation-annotation: "Y16R"
  abundance fitness: -0.075
- mutation-annotation: "R52F"
  abundance fitness: -0.14
- mutation-annotation: "S1I"
  abundance fitness: -0.035
- mutation-annotation: "K54V"
  abundance fitness: -0.065
- mutation-annotation: "K75H"
  abundance fitness: 0.077
- mutation-annotation: "G68N"
  abundance fitness: -0.152
- mutation-annotation: "I48Y"
  abundance fitness: -0.176
- mutation-annotation: "V26Q"
  abundance fitness: 0.001
- mutation-annotation: "C56R"
  abundance fitness: -0.358
- mutation-annotation: "G42A"
  abundance fitness: 0.005
- mutation-annotation: "P57D"
  abundance fitness: 0.061
- mutation-annotation: "K54P"
  abundance fitness: -0.072
- mutation-annotation: "I51R"
  abundance fitness: -0.018
- mutation-annotation: "G42F"
  abundance fitness: -0.044
- mutation-annotation: "K2A"
  abundance fitness: -0.066
- mutation-annotation: "C40A"
  abundance fitness: -0.816
- mutation-annotation: "E33P"
  abundance fitness: -0.128
- mutation-annotation: "S76G"
  abundance fitness: -0.076
- mutation-annotation: "H15P"
  abundance fitness: -0.066
- mutation-annotation: "E33V"
  abundance fitness: -0.01
- mutation-annotation: "C46K"
  abundance fitness: -0.839
- mutation-annotation: "R43D"
  abundance fitness: -0.024
- mutation-annotation: "C4V"
  abundance fitness: -0.989
- mutation-annotation: "G68W"
  abundance fitness: -0.447
- mutation-annotation: "C46L"
  abundance fitness: -0.819
- mutation-annotation: "C14Q"
  abundance fitness: 0.013
- mutation-annotation: "C59E"
  abundance fitness: -0.955
- mutation-annotation: "V19C"
  abundance fitness: -0.108
- mutation-annotation: "C21Q"
  abundance fitness: -0.567
- mutation-annotation: "F28R"
  abundance fitness: -0.898
- mutation-annotation: "F28C"
  abundance fitness: -0.364
- mutation-annotation: "V26D"
  abundance fitness: 0.024
- mutation-annotation: "G8F"
  abundance fitness: -0.202
- mutation-annotation: "Q66R"
  abundance fitness: -0.014
- mutation-annotation: "I3H"
  abundance fitness: -0.11
- mutation-annotation: "S12M"
  abundance fitness: 0.071
- mutation-annotation: "L5A"
  abundance fitness: -0.05
- mutation-annotation: "I3S"
  abundance fitness: -0.128
- mutation-annotation: "C64T"
  abundance fitness: -0.35
- mutation-annotation: "P57G"
  abundance fitness: -0.062
- mutation-annotation: "C40S"
  abundance fitness: -1.05
- mutation-annotation: "K25G"
  abundance fitness: -0.051
- mutation-annotation: "K2E"
  abundance fitness: -0.072
- mutation-annotation: "A31S"
  abundance fitness: -0.022
- mutation-annotation: "I48G"
  abundance fitness: -0.033
- mutation-annotation: "C21R"
  abundance fitness: -0.962
- mutation-annotation: "K75V"
  abundance fitness: 0.034
- mutation-annotation: "G13S"
  abundance fitness: -0.033
- mutation-annotation: "D45W"
  abundance fitness: -0.249
- mutation-annotation: "E10H"
  abundance fitness: 0.078
- mutation-annotation: "Y16L"
  abundance fitness: -0.104
- mutation-annotation: "N70V"
  abundance fitness: -0.011
- mutation-annotation: "G13P"
  abundance fitness: -0.157
- mutation-annotation: "F27V"
  abundance fitness: -0.591
- mutation-annotation: "K29F"
  abundance fitness: -0.167
- mutation-annotation: "K54I"
  abundance fitness: -0.018
- mutation-annotation: "N37M"
  abundance fitness: -0.076
- mutation-annotation: "T20H"
  abundance fitness: -0.186
- mutation-annotation: "F28N"
  abundance fitness: -0.647
- mutation-annotation: "Q35Y"
  abundance fitness: -0.112
- mutation-annotation: "Q66C"
  abundance fitness: -0.023
- mutation-annotation: "I51C"
  abundance fitness: -0.051
- mutation-annotation: "A31F"
  abundance fitness: -0.104
- mutation-annotation: "G72E"
  abundance fitness: -0.036
- mutation-annotation: "L65V"
  abundance fitness: -0.087
- mutation-annotation: "V19I"
  abundance fitness: -0.086
- mutation-annotation: "I48V"
  abundance fitness: -0.035
- mutation-annotation: "F27A"
  abundance fitness: -0.434
- mutation-annotation: "N55R"
  abundance fitness: -0.015
- mutation-annotation: "L39A"
  abundance fitness: -0.093
- mutation-annotation: "V18F"
  abundance fitness: -0.274
- mutation-annotation: "I47M"
  abundance fitness: -0.079
- mutation-annotation: "T20W"
  abundance fitness: -0.325
- mutation-annotation: "R52P"
  abundance fitness: -0.081
- mutation-annotation: "Q35N"
  abundance fitness: -0.058
